Subject Of Test: Protein farnesyltransferase (Homo sapiens, UniProt P49354+P49356)
Experiment Description: In vitro inhibition of farnesyltransferase farnesylation of the H-ras oncogene
Format: protein-complex assay
Quantity Name: IC50 (nM)

INSERT INTO results (molecule, reported_measurement) VALUES
  ('CC(C)(C)NC(=O)N1CCC(CC(=O)N2CCN(C3c4ccc(Cl)cc4CCc4cc(Br)cnc43)CC2)CC1 (configuration not stated)', 108),
  ('CC(=O)N1CCC(CC(=O)N2CCN(C3c4ccc(Cl)cc4CCc4cccnc43)CC2)CC1 (configuration not stated)', 870),
  ('CN1CCCC(OC(=O)N2CCN(C3c4ccc(Cl)cc4CCc4cccnc43)CC2)C1 (configuration not stated)', 2100),
  ('O=C(C1CCNCC1)N1CCN(C2c3ccc(Cl)cc3CCc3cccnc32)CC1 (configuration not stated)', 11300),
  ('CC(C)(C(=O)N1CCN(C2c3ccc(Cl)cc3CCc3cc(Br)cnc32)CC1)c1cc[n+]([O-])cc1 (configuration not stated)', 390),
  ('NC(=O)N1CCCC(CC(=O)N2CCN(C3c4ccc(Cl)cc4CCc4cccnc43)CC2)C1 (configuration not stated)', 1750),
  ('N[C@@H](CS)C(=O)N1CCC(CC(=O)N2CCN(C3c4ccc(Cl)cc4CCc4cc(Br)cnc43)CC2)CC1 (some centres not stated)', 230),
  ('O=C(Cc1cc[n+]([O-])cc1)N1CCN(C2c3ccc(Cl)cc3CCc3cccnc32)CC1 (configuration not stated)', 740),
  ('CN1CCCC(CC(=O)N2CCN([C@H]3c4ccc(Cl)cc4CCc4cccnc43)CC2)C1 (some centres not stated)', 600),
  ('O=C(Cc1cc[n+]([O-])cc1)N1CCN([C@@H]2c3ccc(Cl)cc3CCc3cccnc32)CC1', 1200),
  ('O=C(CC1CCNCC1)N1CCN(C2c3ccc(Cl)cc3CCc3cc(Br)cnc32)CC1 (configuration not stated)', 72),
  ('O=C(Cc1cc[n+]([O-])cc1)N1CCN([C@H]2c3ccc(Cl)cc3CCc3cccnc32)CC1', 490);
